target: AChE (EC 3.1.1.7, from electric eel) (Electrophorus electricus); construct: purchased Aladdin (Shanghai, China); assay: In vitro AChE inhibitory activity assay (modified Ellman's method); format: biochemical; conditions: tested at 100 μM, triplicate
Measured AChE IR, %, listed per entry for reference.

Guide cases for AChE IR, %, answers given:
• COC(=O)C1(O)OC(=O)C(Cc2ccc(O)c(CCC(C)(C)O)c2)=C1c1ccc(O)cc1 (stereo not shown) = 7.7 ± 1.0%
• CC1(C)CCc2cc(CC3OC(=O)C(O)=C3c3ccc(O)cc3)ccc2O1 (stereo not shown) = 23.2 ± 1.1%
• COC(=O)C1(Cc2ccc3c(c2)CCC(C)(C)O3)OC(=O)C(O)=C1c1ccc(O)cc1 (stereo not shown) [Compound 11, aspernolide A] = −0.1 ± 0.7%
• COC(=O)C1(Cc2ccc(O)c(CC3OC3(C)C)c2)OC(=O)C(O)=C1c1ccc(O)cc1 (stereo not shown) = −4.2 ± 0.3%
• COC(=O)C1(Cc2ccc(O)c(CC=C(C)C)c2)OC(=O)C(O)=C1c1ccccc1 (stereo not shown) = 10.4 ± 1.9%

Q) Output reported AChE IR, % of the compound COC(=O)C1(Cc2ccc(O)c(CCC(C)(C)OC)c2)OC(=O)C(O)=C1c1ccc(O)cc1 (stereo not shown) [Compound 13, aspernolide C] on AChE (EC 3.1.1.7, from electric eel) (Electrophorus electricus).
A) 3.9 ± 0.9%

Q) Output reported AChE IR, % of the compound COC(=O)C1(Cc2ccc3c(c2)CC(C(C)(C)O)O3)OC(=O)C(O)=C1c1ccc(O)cc1 (stereo not shown) on AChE (EC 3.1.1.7, from electric eel) (Electrophorus electricus).
A) 13.3 ± 5.5%

Q) Output reported AChE IR, % of the compound "COC(=O)[C@@]1(O)OC(=O)C(Cc2ccc(O)c(CC=C(C)C)c2)=C1c1ccc(O)cc1" on AChE (EC 3.1.1.7, from electric eel) (Electrophorus electricus).
A) 11.9 ± 1.0%

---

target: BChE (EC 3.1.1.8, from equine serum) (Equus caballus); construct: BChE (EC 3.1.1.8, from equine serum); purchased Aladdin (Shanghai, China); host or cells: equine serum; experiment: biochemical; type: biochemical
reported.property: pIC50
Keep it numeric: pIC50 is minus log10 of the concentration in mol/L.

Q) State its pIC50 for this compound: COC(=O)[C@@]1(Cc2ccc(O)c(CC=C(C)C)c2)OC(=O)C(O)=C1c1ccc(O)cc1 [Compound 6, butyrolactone I]
A) 4.45

---

target: BChE (EC 3.1.1.8, from equine serum) (Equus caballus, UniProt P81908); construct: BChE (EC 3.1.1.8, from equine serum); purchased Aladdin (Shanghai, China); host or cells: equine serum; assay: biochemical; type: biochemical; conditions: tested at 100 μM, triplicate
Sequence (P81908 whole entry): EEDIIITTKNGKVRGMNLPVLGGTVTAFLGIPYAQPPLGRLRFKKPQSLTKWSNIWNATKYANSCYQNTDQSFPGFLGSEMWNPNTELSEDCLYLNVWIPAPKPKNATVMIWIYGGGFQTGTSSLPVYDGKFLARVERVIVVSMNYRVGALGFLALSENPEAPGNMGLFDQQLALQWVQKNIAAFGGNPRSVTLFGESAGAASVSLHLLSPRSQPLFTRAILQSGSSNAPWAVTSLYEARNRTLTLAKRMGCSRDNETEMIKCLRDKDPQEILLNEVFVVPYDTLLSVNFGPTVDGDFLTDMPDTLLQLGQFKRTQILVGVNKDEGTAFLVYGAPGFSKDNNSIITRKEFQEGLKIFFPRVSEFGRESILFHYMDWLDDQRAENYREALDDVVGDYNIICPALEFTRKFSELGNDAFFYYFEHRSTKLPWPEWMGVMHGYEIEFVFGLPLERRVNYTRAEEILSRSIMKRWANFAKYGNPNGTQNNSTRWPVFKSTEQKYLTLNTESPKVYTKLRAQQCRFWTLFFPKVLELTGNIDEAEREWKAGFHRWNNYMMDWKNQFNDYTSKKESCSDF
Decision: BChE IR, % beneath 30% gives Satisfied; BChE IR, % meeting or exceeding 30% gives Not satisfied.

• COC(=O)C1(Cc2ccc3c(c2)CCC(C)(C)O3)OC(=O)C(O)=C1c1ccc(O)cc1 (stereo not shown) [Compound 11, aspernolide A] = Satisfied
• COC(=O)C1(O)OC(=O)C(Cc2ccc(O)c(CCC(C)(C)OC)c2)=C1c1ccc(O)cc1 (stereo not shown) = Satisfied
• COC(=O)C1(Cc2ccc(O)cc2)OC(=O)C(O)=C1c1ccc(O)cc1 (stereo not shown) = Satisfied
• CC(C)=CCc1cc(CC2OC(=O)C(O)=C2c2ccc(O)cc2)ccc1O (stereo not shown) = Not satisfied
• CCOC(=O)C1(Cc2ccc(O)c(CC=C(C)C)c2)OC(=O)C(O)=C1c1ccc(O)cc1 (stereo not shown) = Not satisfied

Q) Hello, I'm reviewing records and need to know if BChE IR, % of COC(=O)C1(Cc2ccc(O)c(CC=C(C)C)c2)OC(=O)C(O)=C1c1ccccc1 (stereo not shown) is below 30%. Could you check?
A) Not satisfied

Q) Hello, I'm reviewing records and need to know if BChE IR, % of CC(C)=CCc1cc(/C=C2\OC(=O)C(c3ccc(O)c(CC=C(C)C)c3)=C2O)ccc1O [Aspulvinone H, aspulvinone H, reference compound] is below 30%. Could you check?
A) Satisfied

---

Molecular target: AChE (EC 3.1.1.7, from electric eel) (Electrophorus electricus, UniProt O42275)
Construct: purchased Aladdin (Shanghai, China)
Sequence (O42275 24-633): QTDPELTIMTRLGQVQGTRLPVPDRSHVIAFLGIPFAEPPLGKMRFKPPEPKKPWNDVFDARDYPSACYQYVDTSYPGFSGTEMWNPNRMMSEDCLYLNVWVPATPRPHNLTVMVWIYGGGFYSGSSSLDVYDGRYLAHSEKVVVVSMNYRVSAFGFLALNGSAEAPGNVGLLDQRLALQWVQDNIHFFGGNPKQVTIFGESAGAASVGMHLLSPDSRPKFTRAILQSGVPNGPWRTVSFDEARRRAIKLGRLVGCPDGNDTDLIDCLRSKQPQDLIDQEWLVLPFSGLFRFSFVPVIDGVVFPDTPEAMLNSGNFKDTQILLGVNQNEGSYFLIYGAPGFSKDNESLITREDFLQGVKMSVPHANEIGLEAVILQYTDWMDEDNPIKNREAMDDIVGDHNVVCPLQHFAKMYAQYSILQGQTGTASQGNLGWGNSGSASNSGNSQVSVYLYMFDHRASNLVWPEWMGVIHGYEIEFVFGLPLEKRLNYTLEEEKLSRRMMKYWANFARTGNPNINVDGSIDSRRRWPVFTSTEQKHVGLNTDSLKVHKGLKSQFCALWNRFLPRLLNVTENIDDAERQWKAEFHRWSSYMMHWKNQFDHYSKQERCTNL
Assay: In vitro AChE inhibitory activity assay (modified Ellman's method)
Assay type: biochemical
Conditions: tested at 100 μM, triplicate
Protocol: The inhibitory activities against AChE (EC 3.1.1.7) and BChE (EC 3.1.1.8) of the fungal samples and test compounds were analyzed following Ellman’s method ([Ellman et al., 1961]) with modifications. […] Then, the absorbance was measured at 412 nm. […] The IC50 values were calculated using Microsoft Excel software, and the data were expressed as the mean ± SD. […]
reported.property: AChE IR, % (%)
Write the answer as a number in %, unit excluded.

• COC(=O)C1(Cc2ccc(O)c(CCC(C)(C)O)c2)OC(=O)C(O)=C1c1ccc(O)cc1 (centres unmarked) [Compound 12, aspernolide B] = 2.2
• COC(=O)[C@@]1(Cc2ccc(O)c(CC=C(C)C)c2)OC(=O)C(O)=C1c1ccc(O)cc1 [Compound 6, butyrolactone I] = −6.7
• CC(C)=CCc1cc(/C=C2\OC(=O)C(c3ccc(O)c(CC=C(C)C)c3)=C2O)ccc1O [Aspulvinone H, aspulvinone H, reference compound] = 9.6
• CC(C)=CCc1cc(CC2OC(=O)C(O)=C2c2ccc(O)cc2)ccc1O (centres unmarked) [Compound 8] = 14.2
• COC(=O)C1(O)OC(=O)C(Cc2ccc(O)c(CCC(C)(C)OC)c2)=C1c1ccc(O)cc1 (centres unmarked) [Compound 1] = 11.2

Q) State its AChE IR, % for this compound: COC(=O)[C@@]1(O)OC(=O)C(Cc2ccc3c(c2)CCC(C)(C)O3)=C1c1ccc(O)cc1 [Compound 3, flavipesolide B]
A) 19.6

Q) State its AChE IR, % for this compound: COC(=O)C1(Cc2ccc(O)cc2)OC(=O)C(O)=C1c1ccc(O)cc1 (centres unmarked) [Compound 9, butyrolactone II]
A) 9.6

Q) State its AChE IR, % for this compound: CCOC(=O)C1(Cc2ccc(O)c(CC=C(C)C)c2)OC(=O)C(O)=C1c1ccc(O)cc1 (centres unmarked) [Compound 7, butyrolactone VII]
A) 11.7
